Test: Cytotoxicity against human HPC cells after 48 hrs
Assay type: cell-based
So I've got a bunch of molecules here, and I need their log10 of CC50 at 48 h values.
Could you please treat all values as log10 of CC50 at 48 h in µM?

| Molecule | log10 of CC50 at 48 h |
| --- | --- |
| Cc1c(C(=O)/C=C/c2cccc([N+](=O)[O-])c2)[n+]([O-])c2ccccc2[n+]1[O-] | 1.66 |

I would be grateful if you could provide log10 of CC50 at 48 h for each of the following entries.
1. Cc1c(C(=O)/C=C/c2ccc(Cl)c(Cl)c2)[n+]([O-])c2ccccc2[n+]1[O-]
2. COc1cc(/C=C/C(=O)c2c(C)[n+]([O-])c3ccccc3[n+]2[O-])cc(OC)c1OC
3. Cc1c(C(=O)/C=C/c2ccc(F)cc2)[n+]([O-])c2ccccc2[n+]1[O-]
4. Cc1c(C(=O)/C=C/c2ccc(Cl)cc2)[n+]([O-])c2ccccc2[n+]1[O-]
5. CC(=O)c1c(C)[n+]([O-])c2ccccc2[n+]1[O-] [MEQUINDOX]
6. Cc1c(C(=O)/C=C/c2ccc(Br)cc2)[n+]([O-])c2ccccc2[n+]1[O-]
7. Cc1ccc(/C=C/C(=O)c2c(C)[n+]([O-])c3ccccc3[n+]2[O-])cc1

Key:
1: 1.11; 2: 1.49; 3: 1.68; 4: 1.32; 5: 2.55; 6: 1.63; 7: 1.60

// log10 of CC50 at 48 h value for `COc1ccc(/C=C/C(=O)c2c(C)[n+]([O-])c3ccccc3[n+]2[O-])cc1` : 1.96

Source: ChEMBL document CHEMBL1137767
